# credit: paper PMC5540273

# Test system: CAMK1B
# CONDITION_INFO: concentration: 1 μM, replicates: in singlicate; n = 1
Reported %Inh values are given for each entry in this list.
// return numeric value only (unit: %, not printed)

Some entries whose results are on file:
Query block: Recorded %Inh for O=C(Nc1n[nH]c2nc(-c3ccco3)c(Br)cc12)C1CCN(Cc2ccccc2)C1.O=C(O)[C@H](O)[C@@H](O)C(=O)O (stereo not shown) , please?
Result block: 0

Query block: Could you tell me which %Inh is on file for Cn1cncc1-c1cc2c(Nc3ccc(OCc4ccccc4)cc3)ncnc2cn1 ?
Result block: 25

Query block: %Inh for COc1cc2ncnc(Nc3cccc(Br)c3)c2cc1OC.Cl ?
Result block: 0

Query block: Need %Inh of Cn1cnc2c(N)ncnc21 , thanks.
Result block: 41

Query block: Report %Inh for Fc1ccc(-c2nc3n(c2-c2ccncc2)CCS3)cc1 please.
Result block: 31

Query block: Could you share which %Inh value was measured for CNC(=O)c1ccc(C)c(-n2c(C)cc(OCc3ccc(F)cc3F)c(Br)c2=O)c1 ?
Result block: 0

Further cases:
Query block: Given the entry COc1ccc(CSc2nnc(-c3ccc4ncsc4c3)o2)cc1C(F)(F)F , report its measured %Inh.
Result block: 0

Query block: Entry COc1ccc(-c2coc3ccc(-c4nnc(C)o4)cc23)cc1 has what %Inh?
Result block: 0

Query block: Which %Inh value is on record for CNc1cc(-c2ccc3c(N)n[nH]c3c2)nc(N)n1 ?
Result block: 8

Query block: Dear colleague, I am looking for the recorded %Inh of the following compound: Cc1ccccc1-c1cc(-c2c[nH]nc2-c2ccccn2)ccn1
Result block: 0

Query block: Which %Inh value is on record for Cc1ccc(NC(=O)Nc2ccccc2)cc1-c1ccc(C(=O)Nc2ccncc2)cc1 ?
Result block: 13

Query block: What %Inh value was documented for this compound, COC(=O)c1cccc(NC(=O)NC2CCN(c3ccnc(Nc4ccc(OC)cc4)n3)C2)c1 (stereo not shown) ?
Result block: 4

Query block: Which %Inh is reported for this compound? O=C(Nc1n[nH]c2cc(-c3ccsc3)ccc12)C1CC1
Result block: 2

Query block: Any idea what %Inh was measured for CC(C)c1cc(-c2ccc3c(N)n[nH]c3c2)nc(N)n1 ?
Result block: 0

Query block: // returns reported %Inh for input COc1cccc(NC(=O)Nc2ccc(C)c(-c3ccc(C(=O)Nc4ccncc4)cc3)c2)c1
Result block: 0

Query block: %Inh lookup needed for COc1ccc(CSc2nnc(-c3ccc4nccn4c3)o2)cc1C(F)(F)F , thanks.
Result block: 8

Query block: Bench note: what %Inh did COc1cccc(C2=C(Nc3cc(Cl)c(O)c(Cl)c3)C(=O)NC2=O)c1 show?
Result block: 0

Query block: For NS(=O)(=O)c1cccc(N/C=C2\C(=O)Nc3ccc(S(=O)(=O)Cc4c(Cl)cccc4Cl)cc32)c1 , what is its reported %Inh?
Result block: 23

====

# Test system: TXK
# CONDITION_INFO: concentration: 1 μM, replicates: in singlicate; n = 1
Quick reference: %Inh of the listed items.
Field: numeric (%). Do not append units.

Query block: I'm curious: which %Inh was measured for NS(=O)(=O)c1cccc(N/C=C2\C(=O)Nc3ccc(S(=O)(=O)Cc4c(Cl)cccc4Cl)cc32)c1 [GSK398099] tested on TXK?
Result block: 6

Query block: Field: %Inh (TXK). Entry: Cn1cnc2c(N)ncnc21 [SKF-97623]
Result block: 0

---
Query block: Item: Cc1c(Cn2c3ccccc3n3c(=O)cc(N4CCOCC4)nc23)cccc1C(F)(F)F [GSK2306394] Test system: TXK Read-out: %Inh Value: ?
Result block: 0

Query block: %Inh of O=C(Nc1n[nH]c2nc(-c3ccco3)c(Br)cc12)C1CCN(Cc2ccccc2)C1.O=C(O)[C@H](O)[C@@H](O)C(=O)O (centres unmarked) [SB-742034] on TXK?
Result block: 0

Query block: Hello, I am looking for reported %Inh with TXK for Cn1cncc1C(=O)NC1CCN(c2ccnc(Nc3ccc(F)cc3)n2)C1 (centres unmarked) [GSK1379717] . Could you help?
Result block: 100

====

# System: MLK3
# CONDITION_INFO: concentration: 1 μM, replicates: in singlicate; n = 1
PROPERTY_MEASURED: %Inh
The number alone won't do; follow it with the unit.

Worked examples follow.
Query block: So what does the record say about %Inh for COc1cccc(NC(=O)Nc2ccc(C)c(-c3ccc(C(=O)Nc4ccncc4)cc3)c2)c1 ?
Result block: 31%

Query block: Could you tell me which %Inh is on file for Nc1cccc(-c2ccc3c(N)n[nH]c3c2)n1 ?
Result block: 0%

---
Query block: Data request, read-out %Inh, for Cc1ccc(NC(=O)c2ccc(Cl)cc2)cc1-c1ccc(C(=O)Nc2ccncc2)cc1
Result block: 15%

Query block: Need %Inh of COc1cc2ncnc(Nc3cccc(Br)c3)c2cc1OC.Cl , thanks.
Result block: 24%

Query block: May I ask what %Inh has been recorded for CSc1ccc(-c2nc3n(c2-c2ccncc2)CCC3)cc1 ?
Result block: 0%

====

# Test system: PIP5K2C
# Construct: gene PIP4K2C
# CONDITION_INFO: concentration: 1 μM, replicates: in singlicate; n = 1
Reported values of %Inh for individual entries
Please respond with the number in % and leave the unit unwritten.

Examples with their reported %Inh follow.
Query block: // map Cl.Cl.Cl.N#Cc1ccc(CCNc2nccc(-c3cccc(CN4CCNCC4)c3)n2)cc1 to recorded %Inh (system: PIP5K2C)
Result block: 11

Query block: Request: %Inh, test system PIP5K2C, entry O=C1NC(=O)C(c2ccc(Cl)cc2)=C1Nc1ccc(O)cc1
Result block: 0

Query block: Enter reported %Inh observed with PIP5K2C for COC(=O)c1cccc(NC(=O)NC2CCN(c3ccnc(Nc4ccc(F)cc4)n3)C2)c1 (centres unmarked)
Result block: 0

Query block: Please state recorded %Inh (tested on PIP5K2C) of Cn1cncc1C(=O)NC1CCN(c2ccnc(Nc3ccc(F)cc3)n2)C1 (centres unmarked)
Result block: 20

Now look at this one.
Query block: Write down the reported %Inh of Cc1ccc(NC(=O)c2ccc(Cl)cc2)cc1-c1ccc(C(=O)Nc2ccncc2)cc1 , test system: PIP5K2C.
Result block: 33

====

# Test system: MELK
pKd: −log10 of the molar value.
PROPERTY_MEASURED: pKd

Query block: Please state recorded pKd (tested on MELK) of O=c1cc(N2CCOCC2)nc2n(Cc3cccc(Cl)c3Cl)c3ccccc3n12;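 note: kd values determined as follow-up on hits from a single-replicate KINOMEscan panel screen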
Result block: < 5.00

====

# Tested on: PIK3CB
# CONDITION_INFO: concentration: 1 μM, replicates: in singlicate; n = 1
PROPERTY_MEASURED: %Inh
Report field: quantity (unit follows the number).

The following compounds have reported results that may help.
Query block: Name the recorded %Inh for O=C(Nc1n[nH]c2cc(-c3ccsc3)ccc12)C1CC1 [SB-732932] .
Result block: 8%

Query block: Item O=C1NC(=O)C(c2ccc(Cl)cc2)=C1Nc1cccc(Cl)c1 [SB-317651] has what recorded %Inh?
Result block: 96.7%

Others:
Query block: Quick check: %Inh of Nc1nccc(-c2c(-c3ccc(F)cc3)ncn2C2CCN(Cc3ccccc3)CC2)n1 [SB-219980] ?
Result block: 4%

Query block: For the compound shown here, Cc1nccc(-c2c(-c3ccc(F)cc3)ncn2CCCN2CCOCC2)n1.Cl [SB-282975] , give the reported %Inh.
Result block: 20%

Query block: # %Inh lookup, item COc1cccc(C2=C(Nc3cc(Cl)c(O)c(Cl)c3)C(=O)NC2=O)c1 [SB-390767]
Result block: 0%

====

# key: entry, value: %Inh
# Test system: IRAK4
# CONDITION_INFO: concentration: 1 μM, replicates: in singlicate; n = 1
Provide only the numeric value, understood in %.

Here's what some known entries look like.
Query block: Would you kindly share the measured %Inh for COC(=O)c1cccc(NC(=O)NC2CCN(c3ccnc(Nc4ccc(OC)cc4)n3)C2)c1 (stereo not drawn) [GSK1379746] ?
Result block: 23

Query block: What does the data say about its %Inh? Entry: CNCc1ccc2nc(NC(=O)c3ccc(C(C)(C)C)cc3)cn2c1
Result block: 0

Query block: Please report the recorded %Inh for Cc1ccc(NC(=O)Nc2ccc(Cl)c(C(F)(F)F)c2)cc1-c1ccc(C(=O)Nc2ccncc2)cc1 [GSK1398470] .
Result block: 0

Query block: Name the reported %Inh value associated with the compound CCn1c(-c2c(N)noc2C)nc2cnccc21 [SB-737856]
Result block: 34

Query block: Return reported %Inh; argument: O=c1cc(N2CCOCC2)nc2n(Cc3cccc(Cl)c3Cl)c3ccccc3n12 [GSK2299009]
Result block: 4

Query block: Param item = O=C(Nc1n[nH]c2cc(-c3ccsc3)ccc12)C1CC1 [SB-732932] ; retrieve measured %Inh.
Result block: 9

New cases:
Query block: For Cc1cccc2c(-c3ccncn3)c(-c3ccc(F)cc3)nn12 [GW515532] , what is its reported %Inh?
Result block: 3

Query block: Look up %Inh for this compound: COc1ccc(Nc2nccc(N3CCC(NC(=O)c4cc5ccccc5s4)C3)n2)cc1 (stereo not drawn) [GSK1379738]
Result block: 19

Query block: Look at this compound and give its reported %Inh. NS(=O)(=O)c1cccc(N/C=C2\C(=O)Nc3ccc(S(=O)(=O)Cc4c(Cl)cccc4Cl)cc32)c1 [GSK398099]
Result block: 19

Query block: Suppose we examine the compound COc1cccc(C2=C(Nc3cc(Cl)c(O)c(Cl)c3)C(=O)NC2=O)c1 [SB-390767] ; what %Inh value has been reported?
Result block: 47

Query block: Fill blank: measured %Inh of the compound Nc1nccc(-c2c(-c3ccc(F)cc3)ncn2C2CCN(Cc3ccccc3)CC2)n1 [SB-219980] is ____.
Result block: 0

Query block: Entry CS(=O)(=O)CCNCc1nc(-c2ccc3ncnc(Nc4ccc(OCc5ccccc5)c(Cl)c4)c3c2)cs1.Cl [GW582764] has what %Inh?
Result block: 13
